- tgt: T1, EsCas13d, nuclease-dead (Eubacterium siraeum, UniProt B0MS50, R295A;H300A;R849A;H854A)
- T1 sequence: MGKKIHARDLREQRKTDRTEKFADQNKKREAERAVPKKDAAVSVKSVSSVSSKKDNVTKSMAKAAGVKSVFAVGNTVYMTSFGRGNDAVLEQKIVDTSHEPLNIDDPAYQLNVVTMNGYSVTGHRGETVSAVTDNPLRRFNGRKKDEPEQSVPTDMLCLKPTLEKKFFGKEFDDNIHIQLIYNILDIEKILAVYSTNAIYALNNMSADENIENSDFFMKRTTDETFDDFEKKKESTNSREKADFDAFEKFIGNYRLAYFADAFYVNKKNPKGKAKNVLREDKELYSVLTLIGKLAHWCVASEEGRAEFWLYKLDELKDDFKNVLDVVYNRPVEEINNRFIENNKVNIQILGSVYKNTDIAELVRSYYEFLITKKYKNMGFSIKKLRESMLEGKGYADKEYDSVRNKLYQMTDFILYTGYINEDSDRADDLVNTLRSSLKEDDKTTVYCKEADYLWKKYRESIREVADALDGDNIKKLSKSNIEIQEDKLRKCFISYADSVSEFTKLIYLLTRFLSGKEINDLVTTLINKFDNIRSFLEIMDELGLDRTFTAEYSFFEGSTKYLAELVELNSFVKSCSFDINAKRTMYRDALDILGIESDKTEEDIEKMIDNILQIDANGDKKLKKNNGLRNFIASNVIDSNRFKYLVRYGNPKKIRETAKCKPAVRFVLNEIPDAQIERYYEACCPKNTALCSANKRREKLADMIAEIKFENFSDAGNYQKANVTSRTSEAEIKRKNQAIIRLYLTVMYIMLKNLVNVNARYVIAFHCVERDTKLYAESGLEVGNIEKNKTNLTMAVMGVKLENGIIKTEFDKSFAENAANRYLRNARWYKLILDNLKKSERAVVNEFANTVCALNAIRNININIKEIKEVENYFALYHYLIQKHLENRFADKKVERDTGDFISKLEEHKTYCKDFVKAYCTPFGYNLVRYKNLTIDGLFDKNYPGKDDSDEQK
- experimentSummary: crRNA (strand 1, pre-loaded); Mg2+; 40 mM Tris-HCl pH 7.5, 150 mM NaCl, 6 mM MgCl2, 1 mM DTT, 0.1% Tween-20, 0.2 mg/ml BSA; 25 C; 10 min per concentration, then washed
- conditionSet: tags: His6-TwinStrep-SUMO cleaved; N-terminal SNAP kept (SNAP-Surface 488); label: 3' end held by stalled T7 RNA polymerase
# reported Kd; entries follow
measuredAttribute: Kd (nM)

INSERT INTO results (binder, measuredattribute, datavalue) VALUES
  ('target 2 MT 5''PFS AAA 3''PFS ACU (mixed) RNA 1: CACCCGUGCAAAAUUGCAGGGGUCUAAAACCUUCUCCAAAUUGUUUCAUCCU RNA 2: GGGAAUGGAUCCACAUCUACGAAUUCAAAAGGAUGAAACAAUUUGGAGAAGACUAGAUCGGAAGAGCACACGU', 'Kd', 9.5),
  ('target 2 MT 5''PFS GCA 3''PFS AGC (mixed) RNA 1: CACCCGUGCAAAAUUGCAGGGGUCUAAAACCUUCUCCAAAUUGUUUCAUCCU RNA 2: GGGAAUGGAUCCACAUCUACGAAUUCGCAAGGAUGAAACAAUUUGGAGAAGAGCAGAUCGGAAGAGCACACGU', 'Kd', 7.5),
  ('target 2 MT 5''PFS UCA 3''PFS ACA (mixed) RNA 1: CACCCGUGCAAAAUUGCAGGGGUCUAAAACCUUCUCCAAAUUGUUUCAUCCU RNA 2: GGGAAUGGAUCCACAUCUACGAAUUCUCAAGGAUGAAACAAUUUGGAGAAGACAAGAUCGGAAGAGCACACGU', 'Kd', 3.6),
  ('target 3 G3C,U7C (mixed) RNA 1: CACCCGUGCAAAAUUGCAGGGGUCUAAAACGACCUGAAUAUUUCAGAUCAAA RNA 2: GGGAAUGGAUCCACAUCUACGAAUUCGUUUUUGAUCUGAAAUAUCCAGCUCUGCAGAUCGGAAGAGCACACGU', 'Kd', 64),
  ('target 1 insG 3'' of 21,insU 3'' of 12 (mixed) RNA 1: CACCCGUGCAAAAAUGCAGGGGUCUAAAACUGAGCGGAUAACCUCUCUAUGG RNA 2: GGGAAUGGAUCCACAUCUACGAAUUCGUACCGAUAGAGAGGUUUAUCCGCUCACCGAGAUCGGAAGAGCACACGU', 'Kd', 64),
  ('target 2 MT 5''PFS GAC 3''PFS AGG (mixed) RNA 1: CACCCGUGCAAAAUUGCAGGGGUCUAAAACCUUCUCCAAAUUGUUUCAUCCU RNA 2: GGGAAUGGAUCCACAUCUACGAAUUCGACAGGAUGAAACAAUUUGGAGAAGAGGAGAUCGGAAGAGCACACGU', 'Kd', 9.5),
  ('target 1 insA 3'' of 13,insA 3'' of 13 (mixed) RNA 1: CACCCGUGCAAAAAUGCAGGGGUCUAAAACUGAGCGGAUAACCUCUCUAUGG RNA 2: GGGAAUGGAUCCACAUCUACGAAUUCGUACCAUAGAGAGAAGUUAUCCGCUCACCGAGAUCGGAAGAGCACACGU', 'Kd', 7.9),
  ('target 1 insC 3'' of 18,insG 3'' of 16 (mixed) RNA 1: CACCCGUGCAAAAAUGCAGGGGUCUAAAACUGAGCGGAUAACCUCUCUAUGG RNA 2: GGGAAUGGAUCCACAUCUACGAAUUCGUACCAUACGAGGAGGUUAUCCGCUCACCGAGAUCGGAAGAGCACACGU', 'Kd', 70),
  ('target 1 insC 3'' of 10 (mixed) RNA 1: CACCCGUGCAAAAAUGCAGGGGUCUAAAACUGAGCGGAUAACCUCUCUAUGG RNA 2: GGGAAUGGAUCCACAUCUACGAAUUCGUACCAUAGAGAGGUUCAUCCGCUCACCGAGAUCGGAAGAGCACACGU', 'Kd', 15.5),
  ('target 1 del9,del18 (mixed) RNA 1: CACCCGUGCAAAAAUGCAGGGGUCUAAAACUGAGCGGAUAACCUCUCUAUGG RNA 2: GGGAAUGGAUCCACAUCUACGAAUUCGUACCAUGAGAGGUUUCCGCUCACCGAGAUCGGAAGAGCACACGU', 'Kd', 100),
  ('target 1 MT 5''PFS GCG 3''PFS AGC (mixed) RNA 1: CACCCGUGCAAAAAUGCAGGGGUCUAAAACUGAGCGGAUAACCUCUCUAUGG RNA 2: GGGAAUGGAUCCACAUCUACGAAUUCGCGCCAUAGAGAGGUUAUCCGCUCAAGCAGAUCGGAAGAGCACACGU', 'Kd', 37),
  ('target 1 insU 3'' of 6,insA 3'' of 2 (mixed) RNA 1: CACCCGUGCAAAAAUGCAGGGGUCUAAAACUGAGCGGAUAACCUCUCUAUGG RNA 2: GGGAAUGGAUCCACAUCUACGAAUUCGUACCAUAGAGAGGUUAUCCUGCUCAACCGAGAUCGGAAGAGCACACGU', 'Kd', 12.8),
  ('target 1 insA 3'' of 6,insA 3'' of 4 (mixed) RNA 1: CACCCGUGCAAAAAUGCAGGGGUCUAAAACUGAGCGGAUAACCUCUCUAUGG RNA 2: GGGAAUGGAUCCACAUCUACGAAUUCGUACCAUAGAGAGGUUAUCCAGCAUCACCGAGAUCGGAAGAGCACACGU', 'Kd', 28.5),
  ('target 2 MT 5''PFS CAU 3''PFS AGA (mixed) RNA 1: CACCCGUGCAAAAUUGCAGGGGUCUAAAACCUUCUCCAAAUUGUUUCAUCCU RNA 2: GGGAAUGGAUCCACAUCUACGAAUUCCAUAGGAUGAAACAAUUUGGAGAAGAGAAGAUCGGAAGAGCACACGU', 'Kd', 2.8);

From: paper PMC10786891
